tgt: Left-right determination factor 2 (Homo sapiens) (UniProt O00292)
Sequence (O00292 whole entry, looked up): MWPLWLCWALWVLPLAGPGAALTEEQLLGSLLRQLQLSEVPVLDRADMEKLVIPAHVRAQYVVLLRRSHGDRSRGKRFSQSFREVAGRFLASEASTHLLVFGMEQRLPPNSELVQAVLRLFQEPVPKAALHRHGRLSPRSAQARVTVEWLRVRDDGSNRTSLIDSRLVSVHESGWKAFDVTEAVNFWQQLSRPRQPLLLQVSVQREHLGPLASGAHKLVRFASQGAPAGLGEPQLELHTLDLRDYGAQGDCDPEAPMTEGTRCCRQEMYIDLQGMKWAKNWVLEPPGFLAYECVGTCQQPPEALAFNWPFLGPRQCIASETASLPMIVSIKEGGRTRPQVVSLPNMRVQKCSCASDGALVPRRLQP
testMethodNotes: small molecules binding LEFTY2 protein – biochemical, small-molecule microarray, 635 nm fluorescence scan, primary screen (AID 1110)
conditionsUsed: higher = more signal
The threshold is inclusive: composite z-score of exactly -0.8 counts as fulfilled; values below receive not fulfilled.

INSERT INTO measurements (compound, cat) VALUES
  ('Cc1ccccc1C(O)C1C=CC2C(=O)N(Cc3ccccc3)C(=O)C2N1n1cnnc1 (stereo not drawn)', 'fulfilled'),
  ('O=C(CS)NCCCCCNC(=O)[C@@H]1C[C@@H]2C(=O)N3CCC[C@H]3C(=O)N2[C@@H]1c1ccc(O)cc1', 'fulfilled'),
  ('CN(C)CCCNC(=O)[C@@]1(Cc2ccccc2I)c2ccccc2C(=O)N(Cc2ccccc2Cl)[C@H]1c1ccc(CO)cc1', 'not fulfilled'),
  ('COc1ccc([Si](C)(C)[C@H]2[C@H](CCn3cc(CCO)nn3)O[C@@]3(C(=O)N(Cc4cccc(N5C(=O)c6cccc7cccc5c67)c4)c4ccccc43)[C@@H]2C)cc1', 'fulfilled'),
  ('C[C@]12C(=O)N(CCCCCO)[C@@H]3C(=O)N(c4ccc(Cl)cc4)CC=CC31O[C@@H]1/C=C\CCCOC(=O)C12 (stereo partly drawn)', 'not fulfilled'),
  ('CCOC(=O)C1=CCC(c2cccc(Cl)c2)O1 (stereo not drawn)', 'fulfilled'),
  ('COC(=O)[C@@]1(Cc2ccccc2)[C@H]2c3cc(C(=O)N(C)C)n(Cc4ccccn4)c3C[C@H]2CN1C(=O)c1ccccc1', 'fulfilled');
